// IC50 collected for Full-length WT ClbP (Escherichia coli)

Lab request: please report IC50 under test system Full-length WT ClbP (Escherichia coli) for NC(=O)C[C@@H](NC(=O)/C=C/CC1CCCCCC1)C(=O)NCCc1ccc(O)cc1 [Compound CCXL]
< 100 µM

Lab request: please report IC50 under test system Full-length WT ClbP (Escherichia coli) for CCCCCCCC(=O)N[C@H](CC(N)=O)C(=O)NCCc1ccncc1 [Compound CCVIII]
< 100 µM

Lab request: please report IC50 under test system Full-length WT ClbP (Escherichia coli) for CCCCCCCC(=O)N[C@H](CC(N)=O)c1ncnn1Cc1ccccc1 [Compound CCCXII]
> 300 µM

Lab request: please report IC50 under test system Full-length WT ClbP (Escherichia coli) for CCCCCCCC(=O)N[C@H](CC(N)=O)C(=O)NCCc1ccc(O)cc1 [Compound CC]
< 100 µM

Lab request: please report IC50 under test system Full-length WT ClbP (Escherichia coli) for CCCCCCCC(=O)N[C@H](CC(N)=O)C(=O)N[C@@H](C)Cc1ccc(O)cc1 [Compound CCXLIV]
< 100 µM

Lab request: please report IC50 under test system Full-length WT ClbP (Escherichia coli) for CCCCCC(=O)N[C@H](CC(N)=O)C(=O)NCCc1ccccc1 [Compound CCLXVII]
< 100 µM

Lab request: please report IC50 under test system Full-length WT ClbP (Escherichia coli) for NC(=O)C[C@@H](NC(=O)CCCCCCC(F)(F)F)C(=O)NCCc1ccc(O)cc1 [Compound CCCV]
< 100 µM

Lab request: please report IC50 under test system Full-length WT ClbP (Escherichia coli) for CCCCCCCC(N[C@H](CC(N)=O)C(=O)NCCc1ccccc1)C(F)(F)F (some centres unmarked) [Compound CCXIV]
< 100 µM

====

Give IC50 for every item shown.
biological target: ClbP (Escherichia coli, UniProt Q0P7K6); assay: ClbP cell lysate activity (inhibition) assay, fluorogenic substrate; assay type: biochemical; details: ClbP Lysate Inhibition Assay: IC50, E. coli ClbP+ lysozyme-EDTA lysates, 5 μM fluorogenic substrate, inhibitor 0-300 μM, 37° C., singlicate

Item under review: CCCCCCCNC(=O)[C@H](CC(N)=O)NC(=O)OCc1ccccc1 . Reported IC50?
> 300 µM

Item under review: CCCCCCCC(=O)N[C@@H](/C=C/C(=O)OCC)CC(N)=O . Reported IC50?
> 300 µM

Item under review: CCCCCCCC(=O)N[C@](C)(CC(N)=O)C(=O)NCCc1ccccc1 . Reported IC50?
> 300 µM

Item under review: CCCCCCCC(=O)N[C@H](CC(N)=O)C(=O)NCCc1ccc(O)cc1O . Reported IC50?
< 100 µM

Item under review: CCCCCCCC(=O)N[C@H](CC(N)=O)C(=O)NCCc1ccc(OC)c(OC)c1 . Reported IC50?
< 100 µM

Item under review: CCCCCCCC(=O)N[C@H](CC(N)=O)c1nnn(C(C)(C)C)n1 . Reported IC50?
> 300 µM

Item under review: NC(=O)C[C@@H](NC(=O)CCCCCCC(=O)O)C(=O)NCCc1ccccc1 . Reported IC50?
> 300 µM

Item under review: NC(=O)C[C@@H](NC(=O)CCCCCCC(F)(F)F)C(=O)NCCc1ccc(O)cc1 . Reported IC50?
< 100 µM
